- target-desc: Feline FcRn complex (FcRn-alpha subunit and beta-microglobulin) (feline)
- experiment-notes: SPR (Biacore), feline FcRn captured on SA chip, IgG flowed over, pH 6
pKd: −log10 of the molar value.
metric-name: pKd

feline IgG1a Fc mutant S428Y, S252Y (antibody, part only; not given: Variable domains, not shown: another chain or arm of the molecule; small tags and cut ends) constant: ASTTAPSVFPLAPSCGTTSGATVALACLVLGYFPEPVTVSWNSGALTSGVHTFPAVLQASGLYSLSSMVTVPSSRWLSDTFTCNVAHPPSNTKVDKTVRKTDHPPGPKPCDCPKCPPPEMLGGPSIFIFPPKPKDTLYISRTPEVTCLVVDLGPDDSDVQITWFVDNTQVYTAKTSPREEQFNSTYRVVSVLPILHQDWLKGKEFKCKVNSKSLPSPIERTISKAKGQPHEPQVYVLPPAQEELSRNKVSVTCLIKSFHPPDIAVEWEITGQPEPENNYRTTPPQLDSDGTYFVYSKLSVDRSHWQRGNTYTCSVYHEALHSHHTQKSLTQSPGK
8.07
feline IgG1a Fc mutant Q311M, S428L (antibody, part only; not given: Variable domains, not shown: another chain or arm of the molecule; small tags and cut ends) constant: ASTTAPSVFPLAPSCGTTSGATVALACLVLGYFPEPVTVSWNSGALTSGVHTFPAVLQASGLYSLSSMVTVPSSRWLSDTFTCNVAHPPSNTKVDKTVRKTDHPPGPKPCDCPKCPPPEMLGGPSIFIFPPKPKDTLSISRTPEVTCLVVDLGPDDSDVQITWFVDNTQVYTAKTSPREEQFNSTYRVVSVLPILHMDWLKGKEFKCKVNSKSLPSPIERTISKAKGQPHEPQVYVLPPAQEELSRNKVSVTCLIKSFHPPDIAVEWEITGQPEPENNYRTTPPQLDSDGTYFVYSKLSVDRSHWQRGNTYTCSVLHEALHSHHTQKSLTQSPGK
8.19
